meta.source: paper PMC6984337

# Target System: UniProtKB I6Y9J2
# Sequence (I6Y9J2 56-408): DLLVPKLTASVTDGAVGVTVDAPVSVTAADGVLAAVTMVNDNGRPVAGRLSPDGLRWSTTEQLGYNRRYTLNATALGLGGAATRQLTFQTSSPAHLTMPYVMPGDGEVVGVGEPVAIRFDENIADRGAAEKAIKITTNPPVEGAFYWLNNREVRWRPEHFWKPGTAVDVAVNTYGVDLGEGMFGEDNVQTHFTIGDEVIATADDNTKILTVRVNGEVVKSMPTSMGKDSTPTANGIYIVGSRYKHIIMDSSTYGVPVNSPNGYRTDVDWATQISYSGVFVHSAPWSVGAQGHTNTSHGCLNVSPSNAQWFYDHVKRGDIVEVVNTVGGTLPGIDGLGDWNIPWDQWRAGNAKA
# Test Description: Fluorescence-based (fluorogenic probe 1) inhibition assay for LdtMt2
# Assay type: biochemical
# Condition Context: IC50 (μM, mean ± SD) 60 min
Readout Name: IC50 (µM)

• O=C1C=CC(=O)N1 [Compound 3, Maleimide] = 18.6
